Hey, just so you know, these numbers are from PubChem BioAssay (NCI).

# Test system: SF-268 CNS
# Method Description: NCI-60 one-dose screen, 48 h
# Cond: 10 µM unless noted
Compounds without any hit were thinned out: in the full panel of roughly 83,000, 20% have a hit. Activity calls are given as the source filed them. How the source made its calls: active means growth percent below 10; inactive means the rest.
Select the correct class. Options are True (active), False (inactive) and nothing else.

q: Which result was noted for this molecule in the test: C/C(=C(/c1ccc(Cl)cc1)c1ccc(OCCCN(C)C)cc1)c1ccc(Cl)cc1
a: False

q: Given Cc1ccc(C)c(-n2c(-c3ccc(Br)cc3)csc2=NC(=O)c2ccccc2F)c1 , state the outcome it received in this test.
a: False

q: Which outcome did this test record for the molecule C=C1C(=O)O[C@H]2[C@H]1CC/C(COC(=O)/C=C\C(=O)NCc1ccc(Cn3c(=O)sn(-c4ccccc4)c3=O)cc1)=C\CC[C@@]1(C)O[C@@H]21 ?
a: False

q: Could you please tell me the result logged for c1ccc2cc(Cn3c[n+](Cc4ccc5ccccc5c4)c4ccccc43)ccc2c1 in this assay?
a: True

q: Record request — test call for O=C(N/N=C/c1ccc(O)cc1O)c1ccc(Nc2ccnc(C(F)(F)F)c2)cc1
a: False

q: What did the test return for COc1ccc(NC(=O)c2ccc(C(=O)Nc3ccc(OC)cc3OC)cc2)c(OC)c1 ?
a: False

q: Per the assay record, what outcome was assigned to Cc1[nH]c(C(=O)Nc2cccc(OC3CCNCC3)c2)c(Cl)c1Cl ?
a: False

q: Assay result, entry CC(C)[C@@]12C[C@@H](OC(=O)COC(=O)c3ccccc3)[C@@](C)(O1)[C@@H]1CC[C@@H](C)[C@H]1[C@@H]2OC(=O)/C=C/c1ccccc1 — outcome?
a: False

q: Name the outcome recorded for O=C(O)C1CN(c2cccc(Cl)c2)N(c2cccc(Cl)c2)C1=O (centres undefined) in the assay.
a: False

q: Which outcome did this test record for the molecule NNC(=S)N/N=C/c1ccccn1 ?
a: False

q: Called result for O=C1C(Cl)=C(NCCN2CCOCC2)C(=O)c2ncccc21
a: False

q: Hi, sorry to bother you, what did the test record for CC/C(Cc1ccccc1)=C(\c1ccc(OCCN2CCCCCC2)cc1)c1ccc(OC(=O)NCc2ccccc2)cc1 ?
a: False

q: Tell me the recorded outcome of this test for O=C(NCc1ccc2c(c1)OCO2)NCC1CCCC(CNC(=O)NCc2ccc3c(c2)OCO3)C1 (centres undefined) .
a: False

q: Which outcome was entered for the molecule N#Cc1c(N2CCOCC2)nc(=S)[nH]c1-c1ccccc1 in this test?
a: False

q: Tell me the recorded outcome of this test for CN1CCN(Cc2cc(NC(=O)c3cccc(C#Cc4cccc5[nH]nc(N)c45)c3)cc(C(F)(F)F)c2)CC1 .
a: False

q: Any idea what this test logged for CCN=C1C=CC(=C(c2ccc(N(C)C)cc2)c2ccc(N(C)C)cc2)c2ccccc21 ?
a: True

q: Recorded call for O=C(CCl)Nc1ccc2c(Nc3cc(O)ccc3Cl)ncnc2c1 ?
a: True

q: Recorded call for O=c1oc2c(cnc3ccccc32)cc1-c1cccs1 ?
a: False

q: Record request — test call for CN(C)c1ccc(-c2cc(-c3ccc(Nc4nc(Nc5ccc(Cl)cc5)nc(Nc5ccc(Cl)cc5)n4)cc3)nc(N)c2C#N)cc1
a: False

q: What did the test return for N=c1sc(Cc2cc(Cl)ccc2Cl)cn1CC(=O)c1ccccc1 ?
a: False

q: Could you check what this test reported for COc1ccc(NC(=O)c2sc3nc4c(cc3c2N)CCCC4)cc1 ?
a: False

q: Field: outcome | Entry: COc1ccc(/C(C)=C(\c2ccc(OCCN3CCCCCC3)cc2)c2ccc(OC(=O)c3ccccc3)cc2)cc1
a: False

q: For CN1CCCc2cc(/C=C3/SC(=S)N(CCc4ccc(O)cc4)C3=O)ccc21 , which call appears in the assay record?
a: False

q: Please indicate how the test categorized CCCCCCCCNc1cc2c3c(c1)CCCN3CCC2 .
a: False

q: Recorded call for O=C1CCC(C(=O)NN(c2ccccc2)c2ccccc2)N1 (centres undefined) ?
a: False

q: So what was the verdict on CCOc1ccc(/C=N\N=C\c2ccc(OCC)cc2)cc1 in this test?
a: False

q: Recorded call for CC1=C(C(=O)n2c3ccccc3c3ccccc32)C(c2cccc([N+](=O)[O-])c2)C(C(=O)n2c3ccccc3c3ccccc32)=C(C)N1 ?
a: False

q: Could you please tell me the result logged for O=C(N/N=C/c1ccc([N+](=O)[O-])cc1)c1ccc2nc(-c3ccc(Cl)cc3)[nH]c2c1 in this assay?
a: False

q: Test call, this molecule: COc1cccc(/C=C2\COc3ccc(O)cc3C2=O)c1
a: False

q: How was O=C(CN1C(=O)NC2NC(=O)NC21)N/N=C/c1ccc(Cl)cc1Cl (centres undefined) classified in this test?
a: False

q: Assay result, entry COc1ccc(-c2cc(-c3ccc(OC)cc3)nc(NCCCNc3ccnc4cc(Cl)ccc34)n2)cc1 — outcome?
a: False

q: Call for entry CCN(CC)c1ccc(/C=N/NC(=O)c2ccc(Nc3ccnc(C(F)(F)F)c3)cc2)c(O)c1 :
a: False

q: Returns: the outcome recorded for Cc1ccc2[nH]c(-c3ccc(S(C)(=O)=O)cc3)c(/C=N/N=C(N)N)c2c1 in this assay.
a: False

q: How did this test come out for COC(=O)Cc1nc(C#N)c(N(C)C)o1 ?
a: False

q: Identify the outcome logged in this assay for the molecule shown: CN1CCN(CCCOC(=O)c2c3c(n4ccccc24)C(=O)c2ncccc2C3=O)CC1
a: True

q: I would be grateful if you could indicate the recorded call for COc1cc2ncnc(Nc3ccc(F)c(Cl)c3)c2cc1OCC(=O)N1CCN(c2ccc(F)cc2)CC1 .
a: False

q: Hello, I am checking results. What call was entered for CC12CCC(/C(=C/NNc3ccc([N+](=O)[O-])cc3[N+](=O)[O-])C1=O)C2(C)C (centres undefined) ?
a: False

q: For C=C1C(=O)O[C@H]2[C@H]1CC/C(Cn1cc(-c3cc(C(F)(F)F)cc(C(F)(F)F)c3)nn1)=C\CC[C@@]1(C)O[C@@H]21 , which call appears in the assay record?
a: True

q: Tell me the recorded outcome of this test for Cc1cccc(-n2c(C)nc3ccc(N4CCCNC4=O)cc3c2=O)c1 .
a: False
